EXPERIMENTAL_PROTOCOL: clinical
TEST_CONDITIONS: human, in vivo, po, Human blood level, 1.5 h; subject D; single oral dose 500 mg D,L-lysine salt (Table 5) or equivalent 300 mg sodium salt (Table 6); serum, as free acid
RECORDED_METRIC: concentration at 1.5 h
Just so you know, I need the unit written after the number.

Ask: If you can, please state the reported concentration at 1.5 h value of CC(C)Cc1ccc(C(C)C(=O)[O-])cc1.[Na+] (stereo not shown) .
Result: 7000 ng/mL

###

EXPERIMENTAL_PROTOCOL: clinical
TEST_CONDITIONS: human, in vivo, po, Human blood level, 1 h; subject D; single oral dose 500 mg D,L-lysine salt (Table 5) or equivalent 300 mg sodium salt (Table 6); serum, as free acid
RECORDED_METRIC: concentration at 1 h (ng/mL)
Kindly answer with a numeric value in ng/mL, unit omitted.

Ask: If you can, please state the reported concentration at 1 h value of CC(C)Cc1ccc(C(C)C(=O)[O-])cc1.[Na+] (stereo not shown) .
Result: 6000
